- System: β-glucosidase (almond)
- method notes: Glycosidase inhibition assay, β-glucosidase
- Format: biochemical
- run conditions: 100 µM compound; substrate at Km
Please provide measured β-Glc % Ra (% remaining activity at 100 µM) for the entries that follow.

Some solved cases for reference:
CCCCN1[C@H](CO)[C@@H](O)[C@@H]1CO [Compound 24]    101%
CCCCN1[C@H](CO)C(O)[C@H]1CO [Compound 22]    93%

Report β-Glc % Ra (% remaining activity at 100 µM) for each item below.
1. O[C@H]1[C@H](O)[C@@H](O)CN2CC[C@H](O)[C@H]12 [Castano., castanospermine, reference compound]
2. CCCCCCCCCN1CCC[C@@H](O)[C@H](O)[C@@H](O)C1 [Compound 2, (3S,4S,5R)-1-Nonylazocane-3,4,5-triol]

1. 13.5%
2. 43%
